test-system: T1, B-cat-Halo (Homo sapiens (Human), UniProt P35222 1-781)
T1 sequence: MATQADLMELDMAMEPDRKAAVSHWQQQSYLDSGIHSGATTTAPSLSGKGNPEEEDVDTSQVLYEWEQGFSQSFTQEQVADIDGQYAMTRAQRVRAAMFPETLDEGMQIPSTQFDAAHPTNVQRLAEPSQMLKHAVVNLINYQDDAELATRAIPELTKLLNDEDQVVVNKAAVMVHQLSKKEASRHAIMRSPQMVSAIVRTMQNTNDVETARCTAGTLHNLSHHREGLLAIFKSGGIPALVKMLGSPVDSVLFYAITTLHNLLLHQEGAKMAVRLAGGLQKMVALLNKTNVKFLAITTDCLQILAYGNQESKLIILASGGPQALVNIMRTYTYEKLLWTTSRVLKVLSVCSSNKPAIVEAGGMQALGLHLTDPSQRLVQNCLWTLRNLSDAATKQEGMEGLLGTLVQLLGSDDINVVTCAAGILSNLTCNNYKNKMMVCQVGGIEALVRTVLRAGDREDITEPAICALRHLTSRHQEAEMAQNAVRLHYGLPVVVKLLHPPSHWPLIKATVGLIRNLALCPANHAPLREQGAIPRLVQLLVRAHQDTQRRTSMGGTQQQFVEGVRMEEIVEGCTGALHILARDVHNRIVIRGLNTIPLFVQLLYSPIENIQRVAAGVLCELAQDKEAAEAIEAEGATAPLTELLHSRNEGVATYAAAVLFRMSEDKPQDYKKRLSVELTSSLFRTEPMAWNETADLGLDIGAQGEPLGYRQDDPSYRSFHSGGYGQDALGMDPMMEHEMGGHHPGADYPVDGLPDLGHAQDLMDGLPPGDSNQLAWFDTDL
procedure-summary: cell-based or functional assay
Starred links: 1 amine or outer side, 2 acyl side, 3 side chain; linkers in the order of their positions; H or OH if unused. Positions of bridges follow the written chain, without caps; N, C: chain ends. Non-standard residues stand in square brackets, D forms with d. Primed or numbered codes have the meaning given here. PyrS2″ = (S)-3-amino-1-((pent-4-en-1-yloxy)carbonyl)pyrrolidine-3-carboxylic acid (stapling residue), C=CCCCOC(=O)N1CC[C@@](N[*:1])(C(=O)[*:2])C1; TfeGA = (S)-2-amino-3-((carboxymethyl)(2,2,2-trifluoroethyl)amino)propanoic acid, O=C([C@H](CN(CC(=O)[*:3])CC(F)(F)F)N[*:1])[*:2]; B5(3) = 2,2-bis(4-pentenyl)glycine (stitching residue), C=CCCCC(CCCC=C)(N[*:1])C(=O)[*:2]; Phe(3-COOH) = N[C@@H](Cc1cccc(C(=O)O)c1)C(=O)O; Phe(2-Cl) = N[C@@H](Cc1ccccc1Cl)C(=O)O; Bta = N[C@@H](Cc1csc2ccccc12)C(=O)O; αAllylPro = C=CC[C@@]1(C(=O)O)CCCN1; tBuAla = CC(C)(C)C[C@H](N)C(=O)O; 3Thi = N[C@@H](Cc1ccsc1)C(=O)O; PyrS2(4) = not defined here
measurement-type: NanoBRET Abs IC50 (µM)
Number in µM, nothing else.

Example entries and their recorded answers appear below.
Ac-[αAllylPro]D[tBuAla][B5(3)]D[Phe(3-COOH)]AAFF[PyrS2″][3Thi][Bta]N-NH2 (staple 1-4, 4-11) [I-2044] ... 2.6
Ac-[αAllylPro]D[tBuAla][B5(3)]D[Phe(3-COOH)]AAFS[PyrS2(4)][Phe(2-Cl)][Bta]N-NH2 (staple 1-4, 4-11; not fully specified; reading uncertain; also: staple isomer, earlier eluting HPLC peak) [I-2038] ... 11.8
Ac-[αAllylPro]D[tBuAla][B5(3)]D[TfeGA]AAFL[PyrS2″][3Thi][Bta]Q-NH2 (staple 1-4, 4-11; not fully specified (residue 9)) [I-2048] ... 28.8

I'd like to know its NanoBRET Abs IC50. The binder in question is Ac-[αAllylPro]D[tBuAla][B5(3)]D[Phe(3-COOH)]AAFA[PyrS2″][Phe(2-Cl)][Bta]N-NH2 (staple 1-4, 4-11) [I-2036]
12.9

I'd like to know its NanoBRET Abs IC50. The binder in question is Ac-[αAllylPro]D[tBuAla][B5(3)]D[Phe(3-COOH)]SAFL[PyrS2″][3Thi][Bta]A-NH2 (staple 1-4, 4-11) [I-2050]
4.9

I'd like to know its NanoBRET Abs IC50. The binder in question is Ac-[αAllylPro]D[tBuAla][B5(3)]D[Phe(3-COOH)]AAFL[PyrS2(4)][3Thi][Bta]NAA[dA]-NH2 (staple 1-4, 4-11; reading uncertain) [I-2047]
2.6

I'd like to know its NanoBRET Abs IC50. The binder in question is Ac-[αAllylPro]D[tBuAla][B5(3)]D[Phe(3-COOH)]AAFN[PyrS2″][Phe(2-Cl)][Bta]F-NH2 (staple 1-4, 4-11) [I-2033]
9.5

I'd like to know its NanoBRET Abs IC50. The binder in question is Ac-[αAllylPro]D[tBuAla][B5(3)]D[Phe(3-COOH)]AAFS[PyrS2″][Phe(2-Cl)][Bta]N-NH2 (staple 1-4, 4-11) [I-2039]
10.5
